Target: Phosphatidylinositol 4,5-bisphosphate 3-kinase catalytic subunit gamma isoform (Homo sapiens) (UniProt P48736)
Sequence (P48736 whole entry, looked up, canonical isoform): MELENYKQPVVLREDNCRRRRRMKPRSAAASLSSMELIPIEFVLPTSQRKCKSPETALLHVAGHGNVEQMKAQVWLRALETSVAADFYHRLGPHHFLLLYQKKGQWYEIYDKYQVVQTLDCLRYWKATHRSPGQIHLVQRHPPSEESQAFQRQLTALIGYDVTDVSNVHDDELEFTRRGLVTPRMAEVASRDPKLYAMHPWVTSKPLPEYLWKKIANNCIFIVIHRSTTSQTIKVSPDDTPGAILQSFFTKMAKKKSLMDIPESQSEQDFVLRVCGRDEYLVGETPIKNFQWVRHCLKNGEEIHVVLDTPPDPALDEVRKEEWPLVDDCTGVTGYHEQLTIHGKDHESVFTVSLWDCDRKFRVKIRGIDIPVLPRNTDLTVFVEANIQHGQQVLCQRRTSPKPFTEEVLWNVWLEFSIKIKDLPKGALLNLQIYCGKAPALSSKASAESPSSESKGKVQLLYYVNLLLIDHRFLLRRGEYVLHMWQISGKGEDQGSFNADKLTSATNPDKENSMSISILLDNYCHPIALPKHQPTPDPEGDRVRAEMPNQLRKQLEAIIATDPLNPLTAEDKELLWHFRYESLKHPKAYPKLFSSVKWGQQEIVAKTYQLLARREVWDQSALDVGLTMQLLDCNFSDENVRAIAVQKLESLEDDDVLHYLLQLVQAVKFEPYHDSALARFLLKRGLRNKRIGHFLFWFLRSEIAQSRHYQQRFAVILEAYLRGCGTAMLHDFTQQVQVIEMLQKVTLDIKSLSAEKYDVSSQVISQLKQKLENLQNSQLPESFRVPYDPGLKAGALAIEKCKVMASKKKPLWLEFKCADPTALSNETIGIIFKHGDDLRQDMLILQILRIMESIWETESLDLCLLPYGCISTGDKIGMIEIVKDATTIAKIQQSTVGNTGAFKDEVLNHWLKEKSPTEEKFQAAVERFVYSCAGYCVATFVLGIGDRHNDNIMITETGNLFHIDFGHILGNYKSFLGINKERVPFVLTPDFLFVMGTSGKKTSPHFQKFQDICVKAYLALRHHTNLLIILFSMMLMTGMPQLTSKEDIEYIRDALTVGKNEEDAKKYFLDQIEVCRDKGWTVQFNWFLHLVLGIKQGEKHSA
Assay: Inhibition of PI3Kgamma in human MOLT-4 cells assessed as inhibition of cell viability at 100 nM after 72 hrs by CellTiter-Glo luminescent assay
Assay type: cell-based
Active and inactive are the calls of the source. The calls are words filed in the database; no cut-off is given here.
Outcomes you can answer with include only these: 1.0 = active, 0.0 = inactive

Here's what some known entries look like.
[
  {
    "smiles.code": "COC(=O)[C@@]12OC[C@]34[C@H]([C@@H](O)[C@@H]1O)[C@@]1(C)CC(=O)C(OC(=O)[C@H](C)NC(=O)[C@H](C)N)=C(C)[C@@H]1C[C@H]3OC(=O)[C@H](OC(=O)C=C(C)C)[C@@H]24",
    "category": 0.0
  },
  {
    "smiles.code": "COC(=O)[C@@]12OC[C@]34[C@H]([C@@H](O)[C@@H]1O)[C@@]1(C)CC(=O)C(OCC(=O)NCCN)=C(C)[C@@H]1C[C@H]3OC(=O)[C@H](OC(=O)C=C(C)C)[C@@H]24",
    "category": 1.0
  },
  {
    "smiles.code": "COC(=O)[C@@]12OC[C@]34[C@H]([C@@H](O)[C@@H]1O)[C@@]1(C)CC(=O)C(OC(=O)[C@@H]5CC(F)(F)CN5)=C(C)[C@@H]1C[C@H]3OC(=O)[C@H](OC(=O)C=C(C)C)[C@@H]24",
    "category": 1.0
  },
  {
    "smiles.code": "COC(=O)[C@@]12OC[C@]34[C@H]([C@@H](O)[C@@H]1O)[C@@]1(C)CC(=O)C(OC(=O)[C@@H](C)N)=C(C)[C@@H]1C[C@H]3OC(=O)[C@H](OC(=O)C=C(C)C)[C@@H]24",
    "category": 1.0
  },
  {
    "smiles.code": "COC(=O)[C@@]12OC[C@]34[C@H]([C@@H](O)[C@@H]1O)[C@@]1(C)CC(=O)C(OC(=O)C[C@H](C)NC(C)=O)=C(C)[C@@H]1C[C@H]3OC(=O)[C@H](OC(=O)C=C(C)C)[C@@H]24",
    "category": 1.0
  },
  {
    "smiles.code": "COC(=O)[C@@]12OC[C@]34[C@H]([C@@H](O)[C@@H]1O)[C@@]1(C)CC(=O)C(OC(=O)CNC(=O)CN)=C(C)[C@@H]1C[C@H]3OC(=O)[C@H](OC(=O)C=C(C)C)[C@@H]24",
    "category": 1.0
  }
]

Could you now consider this next compound?
Request: // param item: COC(=O)[C@@]12OC[C@]34[C@H]([C@@H](O)[C@@H]1O)[C@@]1(C)CC(=O)C(OC(=O)CNC(=O)CNC(=O)CN)=C(C)[C@@H]1C[C@H]3OC(=O)[C@H](OC(=O)C=C(C)C)[C@@H]24 ; yields the recorded call
Response: 1.0

----------
Molecular target: Phosphatidylinositol 4,5-bisphosphate 3-kinase catalytic subunit gamma isoform (Homo sapiens)
Assay: Inhibition of PI3Kgamma in human Raji cells assessed as inhibition of cell viability at 100 nM after 72 hrs by CellTiter-Glo luminescence assay
Format: cell-based
Calls of active or inactive are those of the source. The rule behind the calls is not given here.
measurement.kind: inhibition

[
  {
    "molecule": "COC(=O)[C@@]12OC[C@]34[C@H]([C@@H](O)[C@@H]1O)[C@@]1(C)CC(=O)C(OCC(=O)C5CC5)=C(C)[C@@H]1C[C@H]3OC(=O)[C@H](OC(=O)C=C(C)C)[C@@H]24",
    "inhibition": "inactive"
  },
  {
    "molecule": "COC(=O)COC1=C(C)[C@@H]2C[C@H]3OC(=O)[C@H](OC(=O)C=C(C)C)[C@H]4[C@]5(C(=O)OC)OC[C@]34[C@H]([C@@H](O)[C@@H]5O)[C@@]2(C)CC1=O",
    "inhibition": "inactive"
  },
  {
    "molecule": "COC(=O)[C@@]12OC[C@]34[C@H]([C@@H](O)[C@@H]1O)[C@@]1(C)CC(=O)C(OCC(=O)C(C)(C)C)=C(C)[C@@H]1C[C@H]3OC(=O)[C@H](OC(=O)C=C(C)C)[C@@H]24",
    "inhibition": "inactive"
  },
  {
    "molecule": "COC(=O)[C@@]12OC[C@]34[C@H]([C@@H](O)[C@@H]1O)[C@@]1(C)CC(=O)C(OC(=O)[C@@H](N)CC(C)C)=C(C)[C@@H]1C[C@H]3OC(=O)[C@H](OC(=O)C=C(C)C)[C@@H]24",
    "inhibition": "Active"
  },
  {
    "molecule": "COC(=O)[C@@]12OC[C@]34[C@H]([C@@H](O)[C@@H]1O)[C@@]1(C)CC(=O)C(OCC(=O)NCCC(=O)OC(C)(C)C)=C(C)[C@@H]1C[C@H]3OC(=O)[C@H](OC(=O)C=C(C)C)[C@@H]24",
    "inhibition": "inactive"
  },
  {
    "molecule": "COC(=O)[C@@]12OC[C@]34[C@H]([C@@H](O)[C@@H]1O)[C@@]1(C)CC(=O)C(OC(=O)[C@H](C)N)=C(C)[C@@H]1C[C@H]3OC(=O)[C@H](OC(=O)C=C(C)C)[C@@H]24",
    "inhibition": "Active"
  },
  {
    "molecule": "COC(=O)[C@@]12OC[C@]34[C@H]([C@@H](O)[C@@H]1O)[C@@]1(C)CC(=O)C(OCC(N)=O)=C(C)[C@@H]1C[C@H]3OC(=O)[C@H](OC(=O)C=C(C)C)[C@@H]24",
    "inhibition": "inactive"
  },
  {
    "molecule": "COC(=O)[C@@]12OC[C@]34[C@H]([C@@H](O)[C@@H]1O)[C@@]1(C)CC(=O)C(OC(=O)CNC(=O)CN)=C(C)[C@@H]1C[C@H]3OC(=O)[C@H](OC(=O)C=C(C)C)[C@@H]24",
    "inhibition": "Active"
  }
]

Entry COC(=O)[C@@]12OC[C@]34[C@H]([C@@H](O)[C@@H]1O)[C@@]1(C)CC(=O)C(OC(=O)CNC(=O)OC(C)(C)C)=C(C)[C@@H]1C[C@H]3OC(=O)[C@H](OC(=O)C=C(C)C)[C@@H]24 , inhibition reported as Active

Record summary for COC(=O)[C@@]12OC[C@]34[C@H]([C@@H](O)[C@@H]1O)[C@@]1(C)CC(=O)C(OCC(=O)NC(Cc5ccccc5)C(=O)O)=C(C)[C@@H]1C[C@H]3OC(=O)[C@H](OC(=O)C=C(C)C)[C@@H]24 (some centres undefined) : reported inhibition = inactive

COC(=O)[C@@]12OC[C@]34[C@H]([C@@H](O)[C@@H]1O)[C@@]1(C)CC(=O)C(OC(=O)[C@@H]5CCCN5)=C(C)[C@@H]1C[C@H]3OC(=O)[C@H](OC(=O)C=C(C)C)[C@@H]24 has a reported inhibition of Active

----------
Biological target: Phosphatidylinositol 4,5-bisphosphate 3-kinase catalytic subunit gamma isoform (Homo sapiens) (UniProt P48736)
Assay: Inhibition of PI3Kgamma in human MOLT-4 cells assessed as inhibition of cell viability at 100 nM after 72 hrs by CellTiter-Glo luminescent assay
Format: cell-based
Calls of active or inactive are those of the source. The calls are words filed in the database; no cut-off is given here.

[
  {
    "smiles.code": "COC(=O)[C@@]12OC[C@]34[C@H]([C@@H](O)[C@@H]1O)[C@@]1(C)CC(=O)C(OC(=O)[C@H]5CCCN5)=C(C)[C@@H]1C[C@H]3OC(=O)[C@H](OC(=O)C=C(C)C)[C@@H]24",
    "inhibition": "Active"
  },
  {
    "smiles.code": "COC(=O)[C@@]12OC[C@]34[C@H]([C@@H](O)[C@@H]1O)[C@@]1(C)CC(=O)C(OC(=O)C[C@H](C)NC(=O)C[C@H](C)N)=C(C)[C@@H]1C[C@H]3OC(=O)[C@H](OC(=O)C=C(C)C)[C@@H]24",
    "inhibition": "Active"
  },
  {
    "smiles.code": "COC(=O)[C@@]12OC[C@]34[C@H]([C@@H](O)[C@@H]1O)[C@@]1(C)CC(=O)C(O)=C(C)[C@@H]1C[C@H]3OC(=O)[C@H](OC(=O)C=C(C)C)[C@@H]24",
    "inhibition": "Active"
  },
  {
    "smiles.code": "COC(=O)[C@@]12OC[C@]34[C@H]([C@@H](O)[C@@H]1O)[C@@]1(C)CC(=O)C(OC(=O)C[C@@H](C)N)=C(C)[C@@H]1C[C@H]3OC(=O)[C@H](OC(=O)C=C(C)C)[C@@H]24",
    "inhibition": "Active"
  }
]

----------
Target: Phosphatidylinositol 4,5-bisphosphate 3-kinase catalytic subunit gamma isoform (Homo sapiens) (UniProt P48736)
Test: Inhibition of PI3Kgamma in human Raji cells assessed as inhibition of cell viability at 100 nM after 72 hrs by CellTiter-Glo luminescence assay
Type: cell-based
The source made the active and inactive calls. The rule behind the calls is not given here.
measurement.kind: inhibition

[
  {
    "smiles.code": "COC(=O)[C@@]12OC[C@]34[C@H]([C@@H](O)[C@@H]1O)[C@@]1(C)CC(=O)C(OCC(=O)NCCN)=C(C)[C@@H]1C[C@H]3OC(=O)[C@H](OC(=O)C=C(C)C)[C@@H]24",
    "test.value": "Active"
  },
  {
    "smiles.code": "CC[C@H](C)[C@H](N)C(=O)OC1=C(C)[C@@H]2C[C@H]3OC(=O)[C@H](OC(=O)C=C(C)C)[C@H]4[C@]5(C(=O)OC)OC[C@]34[C@H]([C@@H](O)[C@@H]5O)[C@@]2(C)CC1=O",
    "test.value": "Active"
  },
  {
    "smiles.code": "COC(=O)[C@@]12OC[C@]34[C@H]([C@@H](O)[C@@H]1O)[C@@]1(C)CC(=O)C(OC(=O)[C@@H](N)C(C)C)=C(C)[C@@H]1C[C@H]3OC(=O)[C@H](OC(=O)C=C(C)C)[C@@H]24",
    "test.value": "Active"
  }
]
